- test: Cyclic voltammetry of organic electrolytic solution
- Assay type: physicochemical
- condition label: unit inferred; Ag/Ag+ reference electrode (0.3 M AgNO3 in acetonitrile), carbon felt working electrode
Listing of entries alongside the reported E^0.
value kind: E^0 (V)

Clc1cc(-c2ccccn2)nc(-c2ccccn2)c1.Clc1cc(-c2ccccn2)nc(-c2ccccn2)c1.O=S(=O)([N-]S(=O)(=O)C(F)(F)F)C(F)(F)F.O=S(=O)([N-]S(=O)(=O)C(F)(F)F)C(F)(F)F.[Fe+2] [Preparation Example 8, Fe^2+-(4′-chloro-terpy)2 [TFSI]2] ... 0.78
Cc1ccnc(-c2cc(C)ccn2)c1.Cc1ccnc(-c2cc(C)ccn2)c1.Cc1ccnc(-c2cc(C)ccn2)c1.O=S(=O)([N-]S(=O)(=O)C(F)(F)F)C(F)(F)F.O=S(=O)([N-]S(=O)(=O)C(F)(F)F)C(F)(F)F.[Fe+2] [Preparation Example 5, Fe^2+-(4,4′-diMe-bpy)3 [TFSI]2] ... 0.43
Clc1cc(-c2ccccn2)nc(-c2ccccn2)c1.O=S(=O)([N-]S(=O)(=O)C(F)(F)F)C(F)(F)F.O=S(=O)([N-]S(=O)(=O)C(F)(F)F)C(F)(F)F.[Fe+2].c1ccc(-c2cccc(-c3ccccn3)n2)nc1 [Preparation Example 3, Fe^2+-(terpy)(4′-chloro-terpy) [TFSI]2] ... 0.72
O=S(=O)([N-]S(=O)(=O)C(F)(F)F)C(F)(F)F.O=S(=O)([N-]S(=O)(=O)C(F)(F)F)C(F)(F)F.[Fe+2].c1ccc(-c2cccc(-c3ccccn3)n2)nc1.c1ccc(-c2cccc(-c3ccccn3)n2)nc1 [Preparation Example 7, Fe^2+-(terpy)2 [TFSI]2] ... 0.7
Cc1ccnc(-c2cc(C)ccn2)c1.Cc1ccnc(-c2cc(C)ccn2)c1.O=S(=O)([N-]S(=O)(=O)C(F)(F)F)C(F)(F)F.O=S(=O)([N-]S(=O)(=O)C(F)(F)F)C(F)(F)F.[Fe+2].c1ccc(-c2ccccn2)nc1 [Preparation Example 1, Fe^2+-(4,4′-diMebpy)2 (bpy) [TFSI]2] ... 0.56

Each recorded value in this set is attributed to patent US9520611B2.
